Entries and their Percentage of Rd in the reaction product values follow.
Tested on: ginsenoside glycosidases from A. niger
Assay: Hydrolysis of ginsenosides with crude ginsenoside glycosidases from A. niger, products measured by TLC
Assay type: biochemical, Aspergillus niger
Settings: pH 5, 30° C., 18 hours
Give your result as the value with the unit written after it.

Find the recorded Percentage of Rd in the reaction product belonging to CC(C)=CCC[C@](C)(O[C@@H]1O[C@H](CO[C@@H]2O[C@@H](CO)[C@H](O)[C@H]2O)[C@@H](O)[C@H](O)[C@H]1O)[C@H]1CC[C@]2(C)[C@@H]1[C@H](O)C[C@@H]1[C@@]3(C)CC[C@H](O[C@@H]4O[C@H](CO)[C@@H](O)[C@H](O)[C@H]4O[C@@H]4O[C@H](CO)[C@@H](O)[C@H](O)[C@H]4O)C(C)(C)[C@@H]3CC[C@]12C [Rc, ginsenoside Rc] and report it.
12%

Reported Percentage of Rd in the reaction product, compound CC(C)=CCC[C@](C)(O[C@@H]1O[C@H](CO[C@@H]2OC[C@H](O)[C@H](O)[C@H]2O)[C@@H](O)[C@H](O)[C@H]1O)[C@H]1CC[C@]2(C)[C@@H]1[C@H](O)C[C@@H]1[C@@]3(C)CC[C@H](O[C@@H]4O[C@H](CO)[C@@H](O)[C@H](O)[C@H]4O[C@@H]4O[C@H](CO)[C@@H](O)[C@H](O)[C@H]4O)C(C)(C)[C@@H]3CC[C@]12C [Rb2, ginsenoside Rb2] : ____
13%

For the compound shown here, CC(C)=CCC[C@](C)(O[C@@H]1O[C@H](CO[C@@H]2O[C@H](CO)[C@@H](O)[C@H](O)[C@H]2O)[C@@H](O)[C@H](O)[C@H]1O)[C@H]1CC[C@]2(C)[C@@H]1[C@H](O)C[C@@H]1[C@@]3(C)CC[C@H](O[C@@H]4O[C@H](CO)[C@@H](O)[C@H](O)[C@H]4O[C@@H]4O[C@H](CO)[C@@H](O)[C@H](O)[C@H]4O)C(C)(C)[C@@H]3CC[C@]12C [Rb1, ginsenoside Rb1] , give the reported Percentage of Rd in the reaction product.
10%

I am curious: what Percentage of Rd in the reaction product value has been reported for CC(C)=CCC[C@](C)(O[C@@H]1O[C@H](CO)[C@@H](O)[C@H](O)[C@H]1O)[C@H]1CC[C@]2(C)[C@@H]1[C@H](O)C[C@@H]1[C@@]3(C)CC[C@H](O[C@@H]4O[C@H](CO)[C@@H](O)[C@H](O)[C@H]4O[C@@H]4O[C@H](CO)[C@@H](O)[C@H](O)[C@H]4O)C(C)(C)[C@@H]3CC[C@]12C [Rd, ginsenoside Rd] ?
15%

* * *

Tested on: ginsenoside glycosidases from A. oryzae
Experiment: Hydrolysis of ginsenosides with crude ginsenoside glycosidases from A. oryzae, TLC
Type: biochemical, Aspergillus oryzae
Conditions: pH 5.0, 30° C., 18 hours
This section presents compounds with their documented Percentage of aglycone in the reaction product values.
Answer format: numeric, % implied, no suffix.

Need Percentage of aglycone in the reaction product, item CC(C)=CCC[C@](C)(O[C@@H]1O[C@H](CO[C@@H]2O[C@@H](CO)[C@H](O)[C@H]2O)[C@@H](O)[C@H](O)[C@H]1O)[C@H]1CC[C@]2(C)[C@@H]1[C@H](O)C[C@@H]1[C@@]3(C)CC[C@H](O[C@@H]4O[C@H](CO)[C@@H](O)[C@H](O)[C@H]4O[C@@H]4O[C@H](CO)[C@@H](O)[C@H](O)[C@H]4O)C(C)(C)[C@@H]3CC[C@]12C [Rc, ginsenoside Rc]
5

Record request: Percentage of aglycone in the reaction product value, item CC(C)=CCC[C@](C)(O)[C@H]1CC[C@]2(C)[C@@H]1[C@H](O)C[C@@H]1[C@@]3(C)CC[C@H](O[C@@H]4O[C@H](CO)[C@@H](O)[C@H](O)[C@H]4O[C@@H]4O[C@H](CO)[C@@H](O)[C@H](O)[C@H]4O)C(C)(C)[C@@H]3CC[C@]12C [Rg3, ginsenoside Rg3]
5

Fill in: Percentage of aglycone in the reaction product of CC(C)=CCC[C@](C)(O[C@@H]1O[C@H](CO[C@@H]2O[C@H](CO)[C@@H](O)[C@H](O)[C@H]2O)[C@@H](O)[C@H](O)[C@H]1O)[C@H]1CC[C@]2(C)[C@@H]1[C@H](O)C[C@@H]1[C@@]3(C)CC[C@H](O[C@@H]4O[C@H](CO)[C@@H](O)[C@H](O)[C@H]4O[C@@H]4O[C@H](CO)[C@@H](O)[C@H](O)[C@H]4O)C(C)(C)[C@@H]3CC[C@]12C [Rb1, ginsenoside Rb1] is ___
2

From: patent US7759101B2
